Test: physchem
Settings: octan-1-ol/water, pH 7.4, LogD7.4
In this section we review reported logD values for a set of compounds.
reported-metric: logD

| compound | observed-result |
| --- | --- |
| COc1ccc(C(=O)CS(=O)(=O)c2ccccc2)cc1 | 1.96 |
| COc1ccccc1C(=O)Nc1ccc(C)c(-n2cnc3ccc(N4CCN(C)CC4)cc3c2=O)c1 | 2.93 |
| Cn1ccc2c(-c3nc(CS(C)(=O)=O)cc(N4CCOCC4)n3)cccc21 | 2 |
| Cc1ccc(CO)cc1N(C)c1ccnc(Nc2cc(CN3CCOCC3)cc(N3CCOCC3)c2)n1 | 3 |
| COc1ccc([C@@H]2Sc3ccccc3N(CCN(C)C)C(=O)[C@@H]2OC(C)=O)cc1 [DILTIAZEM] | 1.99 |

Value source: ChEMBL document CHEMBL3301361
